What Kb was measured for each of the following?
Biological target: Thromboxane A2 receptor (Rattus norvegicus)
Sequence (P34978 whole entry): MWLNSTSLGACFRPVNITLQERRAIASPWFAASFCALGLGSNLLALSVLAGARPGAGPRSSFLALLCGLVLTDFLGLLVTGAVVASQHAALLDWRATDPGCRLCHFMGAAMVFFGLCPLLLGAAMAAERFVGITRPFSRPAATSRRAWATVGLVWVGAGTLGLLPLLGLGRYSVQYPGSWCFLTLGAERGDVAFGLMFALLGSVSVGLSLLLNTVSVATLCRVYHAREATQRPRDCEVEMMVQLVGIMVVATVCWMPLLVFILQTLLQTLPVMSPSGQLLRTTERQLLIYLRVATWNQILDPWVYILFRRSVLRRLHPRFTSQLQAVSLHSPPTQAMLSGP
Assay: In vitro thromboxane A2 receptor antagonism through inhibition of U-46619 induced contraction of rat isolated thoracic aortic strip
Format: functional
Details: read-out: pA2 (converted)
Answer with a number only, understood to be in nM.

Input O=C(O)CCCCO/N=C(/c1cccnc1)c1cccc(CCNS(=O)(=O)c2ccc(I)cc2)c1 , output reported Kb.
200

Input O=C(O)CCC/C=C(/c1cccnc1)c1cccc(CCNS(=O)(=O)c2ccc(I)cc2)c1 , output reported Kb.
1

Input O=C(O)CCC/C=C(/c1cccnc1)c1cccc(CCNS(=O)(=O)c2ccccc2)c1 , output reported Kb.
15.8

Input O=C(O)CCC/C=C(/c1cccnc1)c1cccc(CCNS(=O)(=O)c2ccc(F)cc2)c1 , output reported Kb.
25.1

Input O=C(O)CCO/N=C(/c1cccnc1)c1cccc(CCNS(=O)(=O)c2ccc(I)cc2)c1 , output reported Kb.
0.631

Input O=C(O)CCC/C=C(/c1cccnc1)c1cccc(CCNS(=O)(=O)c2ccccc2[N+](=O)[O-])c1 , output reported Kb.
200

Input CC(C)(CNS(=O)(=O)c1ccc(I)cc1)c1cccc(/C(=N\OCCC(=O)O)c2cccnc2)c1 , output reported Kb.
2

Input O=C(O)CCC/C=C(/c1cccnc1)c1cccc(CCNS(=O)(=O)c2ccc([N+](=O)[O-])cc2)c1 , output reported Kb.
3.98

Input O=C(O)CO/N=C(/c1cccnc1)c1cccc(CCNS(=O)(=O)c2ccc(I)cc2)c1 , output reported Kb.
1.58
